test system: MKN-7; experiment: Growth inhibition of human MKN7 cells by sulforhodamine B assay; type: functional
Parameter: GI50 (µM)

The cases that follow already have their GI50 on record.
INSERT INTO results (molecule, numeric_value) VALUES
  ('CCCCCCCCCCCC[C@@H](O)[C@H]1CC[C@H]([C@H](O)CCCCCCCCCCCCC2=C[C@H](C)OC2=O)O1 [REL-SOLAMIN]', 13),
  ('CCCCCCCCCCCC[C@@H](O)[C@H]1CC[C@H]([C@H](O)CCCCCCCCCC[C@@H](F)CC2=C[C@H](C)OC2=O)O1', 0.96);

a. CCCCCCCCCCCC[C@@H](O)[C@H]1CC[C@H]([C@H](O)CCCCCCCCCC[C@@H](O)CC2=C[C@H](C)OC2=O)O1 [MURISOLIN]
b. CCCCCCCCCCCC[C@@H](O)[C@H]1CC[C@H]([C@H](O)CCCCCCCCCC[C@H](F)CC2=C[C@H](C)OC2=O)O1
stdin: Form: Entry with minimum GI50 (choose one): a / b Give the label under which the chosen entry appears.
stdout: a

----------
test system: NCI-H226; experiment: Growth inhibition of human NCI-H226 cells by sulforhodamine B assay; type: functional
Parameter: GI50 (µM)

INSERT INTO assay_data (compound, system_tested, parameter, numeric_value) VALUES
  ('CCCCCCCCCCCC[C@@H](O)[C@H]1CC[C@H]([C@H](O)CCCCCCCCCC[C@@H](O)CC2=C[C@H](C)OC2=O)O1 [MURISOLIN]', 'NCI-H226', 'GI50', 29);

1. CCCCCCCCCCCC[C@@H](O)[C@H]1CC[C@H]([C@H](O)CCCCCCCCCC[C@H](F)CC2=C[C@H](C)OC2=O)O1
2. CCCCCCCCCCCC[C@@H](O)[C@H]1CC[C@H]([C@H](O)CCCCCCCCCC[C@@H](F)CC2=C[C@H](C)OC2=O)O1
stdin: Form: Entry with minimum GI50 (choose one): 1 / 2 Give the label under which the chosen entry appears.
stdout: 1
(1: 40 µM, 2: 58 µM)
